The reported measurements were obtained from patent US20070197430A1.

IC50 values for the binders below.
test-target: Bcl-xL ΔC25 (Homo sapiens, UniProt Q07817)
test: AlphaScreen GST detection; competitor: biotinylated BimBH3 peptide; second of two values
Bridge positions count the residues as written; N and C are the ends.
measure: IC50 (nM)

>>> experimental_result("Ac-IAQELRRIGDEF-NH2 [Linear 12mer Ac-…-NH2]")
6300
>>> experimental_result("Ac-IAQELRRIGDEF-NH2 (linker 4-11 via 1,5‑diaminopentane) [Acetyl-IAQ(E1)LRRIGD(E2)F-amide with a 1,5-diaminopentane linker (second position)]")
54
>>> experimental_result("Ac-IAQQLRRIGDQF-NH2 [L2 Ac-…-NH2]")
890
